Source of measurements: PubChem BioAssay (NCI)

ASSAY_TEXT: NCI Yeast Anticancer Drug Screen. Data for the cln2 rad14 strain (AID 165);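 note: 0% = growth equal to vehicle treated cultures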
REPORTED_CONDITIONS: S. cerevisiae cln2 rad14 strain, at 50.0 µM, hits give high values
Compounds without any hit were thinned out: in the full panel of roughly 79,000, 15% have a hit.

{"MOLECULE": "O=[N+]([O-])c1cccc(/C=C/C=C/c2ccc(Cl)c(Cl)c2)c1", "growth inhibition / %": 3.65}
{"MOLECULE": "NC(N)=N/N=C(\\c1ccc(Cl)cc1)C1CC1", "growth inhibition / %": -13.2}
{"MOLECULE": "COc1ccc(C(=O)C(CN(C)C)CN(C)C)cc1OC", "growth inhibition / %": -5.9}
{"MOLECULE": "CC(C)(O)c1cc(F)ccc1N", "growth inhibition / %": 15.3}
{"MOLECULE": "O=[N+]([O-])c1cc(Cl)cc2c1-c1c(Cl)cc(Cl)cc1C2", "growth inhibition / %": 20.8}
{"MOLECULE": "COc1cc(C(=O)C/C(CCC(=O)Nc2ccc(Cl)cc2Cl)=N/NC(=O)C(N)=O)ccc1O", "growth inhibition / %": 22.4}
{"MOLECULE": "COC(=N)Cc1cc(OC)cc(OC)c1", "growth inhibition / %": -12.7}
{"MOLECULE": "O/N=C1\\CC2(N3CCOCC3)CCC1(c1ccccc1)CC2", "growth inhibition / %": 20.9}
{"MOLECULE": "CNC(=S)NNC1=NCCCN1", "growth inhibition / %": 13.8}
{"MOLECULE": "O=C(O)c1c(Br)c(Br)c(Br)c(Br)c1C(=O)Nc1cccc2c(O)cccc12", "growth inhibition / %": 14.4}
{"MOLECULE": "CCC(C)(O)C(=O)O (configuration not stated)", "growth inhibition / %": -4.75}
{"MOLECULE": "COC(=O)C1CC(=C(C)C)CCC1=O (configuration not stated)", "growth inhibition / %": 11.2}
